Record form. Attribute: melting point. Fill in for each entry.
Structures can show the parent of a compound that is named as a salt.

Read off the recorded melting point for O=C(CN1CCN(c2ccnc3cc(Cl)ccc23)CC1)N1CC=C(c2cccc3ccoc23)CC1 (as salt: oxalate) [Compound 99]
99 to 100 °C

For Cc1cc2cc(C3=CCN(C(=O)CN4[C@H](C)CN(c5cncnc5)C[C@@H]4C)CC3)ccc2s1 [Compound 40] , write its melting point.
191 to 192 °C

Annotate the compound O=C(CN1CC2CCC(C1)N2c1ccc(-c2noc(=O)[nH]2)cn1)N1CC=C(c2cccc3ccoc23)CC1 with its measured melting point.
230 to 232 °C

Assign melting point to the following record: Cc1cc2cc(C3=CCN(C(=O)CN4CC5CCC(C4)N5c4ncc(F)cn4)CC3)ccc2s1
177 to 179 °C

Respond only with melting point recorded for C[C@@H]1CN(c2ccc(C(F)(F)F)nc2)C[C@H](C)N1CC(=O)N1CC=C(c2cccc3ccoc23)CC1 [Compound 37]
119 to 120 °C

Supply recorded melting point for O=C(CN1CCN(c2ccc(Cl)c(Cl)n2)CC1)N1CC=C(c2cccc3ccsc23)CC1 [Compound 112] here.
89 to 90 °C

Please look at this compound and report its melting point: O=C(CN1CCN(c2ccc(C(F)(F)F)cn2)C(=O)C1)N1CC=C(c2c[nH]c3ccccc23)CC1 [Compound 30]
230 to 233 °C

For Cc1cc2cc(C3=CCN(C(=O)CN4[C@H](C)CN(c5ccc(C(F)(F)F)nc5)C[C@@H]4C)CC3)ccc2s1 [Compound 39] , write its melting point.
217 to 218 °C

For the compound O=C(CN1CCN(c2ccc(C(F)(F)F)cn2)CC1)N1CC=C(c2c[nH]c3ccccc23)CC1 [Compound 109] , give its reported melting point.
220 to 222 °C

// fetch melting point given entry C[C@@H]1CN(c2ccc(C(F)(F)F)nc2)C[C@H](C)N1CC(=O)N1CC=C(c2ccc3sccc3c2)CC1 [Compound 47]
136 to 137 °C

Look up and report measured melting point for this entry: Cc1cc2cc(C3=CCN(C(=O)CN4CCN(c5cccc(C(F)(F)F)n5)CC4)CC3)ccc2s1 [Compound 116]
121 to 123 °C

Answer with reported melting point of O=C(O)c1ccc(N2C3CCC2CN(CC(=O)N2CC=C(c4cccc5ccoc45)C2)C3)nc1
188 to 189 °C

Specify reported melting point for the compound shown: C[C@@H]1CN(c2ccc(C(F)(F)F)nc2)C[C@H](C)N1CC(=O)N1CC=C(c2ccc3c(c2)OCCO3)CC1 [Compound 45]
200 to 201 °C

For the compound O=C(CN1CCN(c2ccc(C(F)(F)F)cn2)C(=O)C1)N1CC=C(c2nccc3sccc23)CC1 [Compound 118] , give its reported melting point.
145 to 148 °C

Input C[C@@H]1CN(c2ccc(C(=O)O)cn2)C[C@H](C)N1CC(=O)N1CC=C(c2cccc3ccoc23)CC1 [Compound 57] , output reported melting point.
272 to 274 °C

Supply recorded melting point for C[C@@H]1CN(c2ncc(C(F)(F)F)cc2Cl)C[C@H](C)N1CC(=O)N1CC=C(c2cccc3ccoc23)CC1 [Compound 92] here.
130 to 131 °C

Report melting point, nothing else, for this compound: COC(=O)c1ccc(N2C3CCC2CN(CC(=O)N2CC=C(c4cccc5ccoc45)CC2)C3)nc1
158 to 159 °C

Look up melting point of O=C(CN1CCN(c2ccc(C(F)(F)F)cn2)CC1)N1CC=C(c2cccc3ccsc23)CC1 [Compound 50] and report it.
120 to 121 °C

Respond only with melting point recorded for COC(=O)c1ccc(N2C3CCC2CN(CC(=O)N2CC=C(c4cccc5ccsc45)CC2)C3)nc1
153 to 154 °C

Supply melting point value. Item: O=C(CN1CCN(c2ccc(C(F)(F)F)cn2)C(=O)C1)N1CC=C(c2cccc3ccoc23)CC1 [Compound 32]
151 to 152 °C

Return the recorded melting point value; entry: O=C(CN1CCN(c2ccc3ccccc3n2)CC1)N1CC=C(c2cccc3ccsc23)CC1 [Compound 105]
177 to 178 °C

Return the recorded melting point value; entry: O=C(CN1CC2CCC(C1)N2c1ncc(F)cn1)N1CC=C(c2c[nH]c3cc(F)ccc23)CC1 (as salt: oxalate)
95 to 96 °C

Note down melting point recorded for O=C(CN1CCN(c2cccc(Br)n2)CC1)N1CC=C(c2cccc3ccsc23)CC1 [Compound 113]
80 to 81 °C

Name the recorded melting point of the compound listed here: COC(=O)c1ccc(N2C3CCC2CN(CC(=O)N2CC=C(c4ccc5sccc5c4)CC2)C3)nc1
150 to 151 °C

Quick one: give measured melting point for O=C(CN1CC2CCC(C1)N2c1ncc(F)cn1)N1CC=C(c2cccc3ccsc23)CC1
112 to 113 °C

Quick one: give measured melting point for Cc1cc2cc(C3=CCN(C(=O)CN4[C@H](C)CN(c5ncc(F)cn5)C[C@@H]4C)CC3)ccc2s1 [Compound 38]
205 to 206 °C

Give the reported melting point for this compound. O=C(O)c1ccc(N2C3CCC2CN(CC(=O)N2CC=C(c4nccc5sccc45)CC2)C3)nc1
159 to 160 °C

Recall and state the measured melting point for C[C@@H]1CN(c2ccc(-c3nccs3)cn2)C[C@H](C)N1CC(=O)N1CC=C(c2cccc3ccoc23)CC1 (as salt: oxalate) [Compound 119] .
140 to 145 °C

Hello, please tell me recorded melting point for this one: O=C(CN1CC2CCC(C1)N2c1ncc(F)cn1)N1CC=C(c2nccc3sccc23)CC1
167 to 168 °C

Give a short answer stating reported melting point for O=C(CN1CCN(c2ccc(C(F)(F)F)cn2)C(=O)C1)N1CC=C(c2cccc3ccoc23)C1 [Compound 83] .
184 to 186 °C

Indicate the recorded melting point value for this compound: COC(=O)c1ccc(N2C3CCC2CN(CC(=O)N2CC=C(c4ccc5c(c4)OCCO5)CC2)C3)nc1
172 to 174 °C
